Item-by-item account of polymerase ribozyme fitness (log ratio)
B1: TPR t1 (parent)
chain: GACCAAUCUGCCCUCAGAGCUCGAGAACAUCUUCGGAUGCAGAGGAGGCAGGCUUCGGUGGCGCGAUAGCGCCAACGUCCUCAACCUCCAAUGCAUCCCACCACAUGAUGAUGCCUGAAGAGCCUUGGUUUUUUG

variants of: B1; assay: polymerase ribozyme fitness, log enrichment relative to wild type (log ratio); higher = more active; in vitro selection for triplet polymerase activity
Measured quantity: polymerase ribozyme fitness (log ratio)

> print(dat)
                       mutant.designation  measured
 1                        G17U G42U G128A     -5.51
 2                               U7A C40U     0.348
 3        A6C U7A C8A A29C U55A C88G C94U     -2.74
 4                        G10A C40A A111C     -1.11
 5                         C12G U55A U87A    0.0839
 6                        C13G A43U C101U     -3.57
 7                               C8G U92A     -1.78
 8                              G44A C64U     -1.11
 9                             C49U A118U    -0.365
10                    G44U A46G C62U C94G     -4.05
11                              C64U C73U     0.562
12         G10U C22G C56U C72U A90G C114U     -3.41
13                        G69A C82U U112G      -4.1
14                              C56U C73U    -0.755
15                              U87C C98A     -4.87
16                        C56G G71U A121C     -2.41
17                  C13G A90U C124U U129C     -3.28
18                    U7G G52U C64U C123G      1.52
19                              C12A A84U     -1.96
20        C15U C56G A90C G93A G117U G127A     -3.28
21                             G19U A121U    0.0875
22   G17U A27U G42A A43U C85U C124A U133A     -5.61
23         A26G A29G A66U C72G U78A A118U     -3.89
24                              C72A C89A    -0.502
25                  C73A C99U A119U U130A     -4.24
26               A6G C31A C64U C89G C123G      -6.4
27                        G47U C53A C114A     -2.64
28                   C13U C72G C85G C123U    -0.494
29  U33G G47C G61C C80A U112A U116C A119U     -6.76
30                               A5U U87G    -0.121
31              C22G G48C G77A C85G U112G      -3.5
32                                   U67C      -2.8
33                         C11G G39A C53G    -0.759
34            A50G C88G G120A C124U U126C      0.11
35                             U92A G110A     -5.07
36                              C13U G60C    -0.502
37                         C15G G42A C88G     -4.44
38                    G25C A46G C70U C85G     -6.39
39                   C72G U81A C82G G128C     -4.54
40               A6U C49U C53U C62A G110A     -5.45
41             U54A A66G C70G C124U U129G     -6.53
42                         U21A G44A C62U      -1.4
43                        G71A C98U C101A     -3.15
44                         A29U C56G A66U        -3
45        A6U G60A C97G A111G U125A G135A     -6.23
46                              G44C G93A    -0.685
